Entry source: patent US7420001B2

# EXPERIMENTAL_SYSTEM: MMP-2 (Homo sapiens, UniProt P08253)
# Construct: purchased Oncogene Research Products (Calbiochem) PF023
# Sequence (P08253 110-660): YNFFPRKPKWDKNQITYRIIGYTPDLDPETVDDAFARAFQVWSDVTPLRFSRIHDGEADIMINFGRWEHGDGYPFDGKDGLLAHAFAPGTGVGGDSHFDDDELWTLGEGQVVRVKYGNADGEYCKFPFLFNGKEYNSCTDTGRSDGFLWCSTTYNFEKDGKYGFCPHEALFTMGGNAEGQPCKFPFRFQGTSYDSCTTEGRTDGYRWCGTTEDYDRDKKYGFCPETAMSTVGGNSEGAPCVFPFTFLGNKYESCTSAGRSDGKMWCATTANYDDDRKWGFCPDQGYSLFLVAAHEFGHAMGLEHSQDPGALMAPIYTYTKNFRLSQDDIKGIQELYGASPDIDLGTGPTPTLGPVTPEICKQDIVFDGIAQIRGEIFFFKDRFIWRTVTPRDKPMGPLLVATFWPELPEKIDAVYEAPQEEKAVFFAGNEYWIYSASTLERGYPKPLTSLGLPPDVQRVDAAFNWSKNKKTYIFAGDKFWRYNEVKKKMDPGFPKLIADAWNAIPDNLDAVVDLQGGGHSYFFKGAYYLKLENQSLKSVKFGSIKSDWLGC
# MEASUREMENT_DESCRIPTION: In-vitro fluorescence assay of MMP-2 activity
# Assay type: biochemical
# PARTICULARS: recombinant human MMP-2; read-out: MMP-2 IC50
Kindly state IC50 for each of the entries shown.
Report the value in µM with no unit label.

Req: Name the recorded IC50 of the compound listed here: CC(C)[C@@H](NS(=O)(=O)c1ccc(-c2ccc(CS(=O)(=O)c3cc4ccccc4o3)cc2)cc1)C(=O)O [Example 164]
Resp: 0.0056

Req: Specify measured IC50 for Cc1c(C(=O)Nc2ccc(-c3ccc(S(=O)(=O)N[C@H](C(=O)O)C(C)C)cc3)cc2)oc2cccc(CCCC(C)C)c12 [Example 29] .
Resp: 9.32

Req: Look up and state reported IC50 for Cc1c(C(=O)Nc2ccc(-c3ccc(S(=O)(=O)N[C@H](C(=O)O)C(C)C)cc3)cc2)oc2cccc(CCC3CC3)c12 [Example 24]
Resp: 8

Req: Entry CC(C)[C@H](NS(=O)(=O)c1ccc(-c2ccc(NC(=O)c3nc4ccccc4[nH]3)cc2)cc1)C(=O)O [Example 52] needs its IC50 filled in; supply it.
Resp: 0.0004

Req: // Input: CCc1ccc2oc(C(=O)Nc3ccc(-c4ccc(S(=O)(=O)N[C@H](C(=O)O)C(C)C)cc4)cc3)c(C)c2c1O [Example 90] . Output its IC50 only.
Resp: 1.76

Req: Input Cc1c(C(=O)Nc2ccc(-c3ccc(S(=O)(=O)N[C@H](C(=O)O)C(C)C)cc3)cc2)oc2cccc(OC(C)C)c12 [Example 108] , output reported IC50.
Resp: 4.29

Req: Let me know recorded IC50 for Cc1c(C(=O)Nc2ccc(-c3ccc(S(=O)(=O)N[C@H](C(=O)O)C(C)C)cc3)cc2)oc2cccc(Oc3ccccc3)c12 [Example 155] , thanks.
Resp: 5

====

# EXPERIMENTAL_SYSTEM: Aggrecanase-1 (Homo sapiens)
# Sequence (O75173 213-837, species assumed): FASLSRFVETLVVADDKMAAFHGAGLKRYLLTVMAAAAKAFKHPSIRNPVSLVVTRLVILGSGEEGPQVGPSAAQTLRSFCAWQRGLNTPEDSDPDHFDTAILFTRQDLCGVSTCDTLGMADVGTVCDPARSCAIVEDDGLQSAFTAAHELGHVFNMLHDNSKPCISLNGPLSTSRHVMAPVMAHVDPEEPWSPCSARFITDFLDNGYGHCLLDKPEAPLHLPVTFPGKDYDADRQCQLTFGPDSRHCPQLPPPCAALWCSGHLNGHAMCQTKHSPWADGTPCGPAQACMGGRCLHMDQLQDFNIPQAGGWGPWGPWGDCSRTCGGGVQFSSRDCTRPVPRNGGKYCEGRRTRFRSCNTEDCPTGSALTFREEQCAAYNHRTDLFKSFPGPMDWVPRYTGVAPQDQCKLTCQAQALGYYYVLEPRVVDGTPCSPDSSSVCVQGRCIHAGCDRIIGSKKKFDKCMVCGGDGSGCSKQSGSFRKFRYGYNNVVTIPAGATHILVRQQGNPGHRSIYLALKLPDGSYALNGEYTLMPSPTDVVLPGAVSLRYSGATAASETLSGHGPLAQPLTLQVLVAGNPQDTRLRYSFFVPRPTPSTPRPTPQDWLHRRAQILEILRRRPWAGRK
The label yes is reserved for IC50 strictly under 2000 nM; no covers values equal to or above it.

Req: Field: below-cutoff. Rule: recorded IC50 strictly less than 2000 nM. Subject: Cc1cc(-c2ccc(S(=O)(=O)N[C@@H](C(=O)O)C(C)C)cc2)cc(C)c1OC(=O)c1oc2ccccc2c1C [Example 132]
Resp: no

Req: Determine if COCCCc1cccc2oc(C(=O)Nc3ccc(-c4ccc(S(=O)(=O)N[C@H](C(=O)O)C(C)C)cc4)cc3)c(C)c12 [Example 30] shows IC50 strictly lower than 2000 nM.
Resp: no

Req: Please check: IC50 for CC(C)[C@@H](NS(=O)(=O)c1ccc(-c2ccc(OCc3nc4ccccc4s3)cc2)cc1)C(=O)O [Example 137] , strictly under 2000 nM or not?
Resp: no

Req: # strict comparison: is reported IC50 < 2000 nM? input = COc1c(Br)ccc2oc(COc3ccc(-c4ccc(S(=O)(=O)N[C@H](C(=O)O)C(C)C)cc4)cc3)c(C)c12 [Example 148]
Resp: yes

Req: In the record for COc1c(Br)ccc2oc(COc3ccc(-c4ccc(S(=O)(=O)N[C@@H](C(=O)O)C(C)C)cc4)cc3)c(C)c12 [Example 136] , is IC50 less than 2000 nM?
Resp: yes

Req: Strictly below 2000 nM in IC50? CC(C)[C@@H](NS(=O)(=O)c1ccc(-c2ccc(OC(=O)c3ccco3)cc2)cc1)C(=O)O [Example 144]
Resp: no

Req: Hi there! Is IC50 for CC(C)[C@@H](NS(=O)(=O)c1ccc(-c2ccc(NC(=O)c3cccs3)cc2)cc1)C(=O)O [Example 173] below 2000 nM, do you know?
Resp: no

Req: Is IC50 strictly under 2000 nM for the entry Cc1c(C(=O)Oc2ccc(-c3ccc(S(=O)(=O)N[C@@H](C(=O)O)C(C)C)cc3)cc2)oc2ccccc12 [Example 134] ?
Resp: yes

====

# EXPERIMENTAL_SYSTEM: MMP-2 (Homo sapiens, UniProt P08253)
# Construct: purchased Oncogene Research Products (Calbiochem) PF023
# MEASUREMENT_DESCRIPTION: In-vitro fluorescence assay of MMP-2 activity
# Assay type: biochemical
# PARTICULARS: recombinant human MMP-2; read-out: MMP-2 IC50
MEASUREMENT_KIND: pIC50
Lab note — pIC50 values are minus log10 of concentrations in M.

Req: Print MMP-2 (Homo sapiens, UniProt P08253) pIC50 for Cc1c(C(=O)Nc2ccc(-c3ccc(S(=O)(=O)N[C@@H](C(=O)O)C(C)C)cc3)cc2)oc2cccc(NS(C)(=O)=O)c12 .
Resp: 5.84

Req: For MMP-2 (Homo sapiens, UniProt P08253), give the measured pIC50 of the entry CCC(=O)Nc1cccc2oc(C(=O)Nc3ccc(-c4ccc(S(=O)(=O)N[C@H](C(=O)O)C(C)C)cc4)cc3)c(C)c12
Resp: 5.24

Req: Provide pIC50, tested on MMP-2 (Homo sapiens, UniProt P08253), for CNC(=O)c1cccc2oc(C(=O)Nc3ccc(-c4ccc(S(=O)(=O)N[C@H](C(=O)O)C(C)C)cc4)cc3)c(C)c12 [Example 43A] .
Resp: 5.17

Req: Look up MMP-2 (Homo sapiens, UniProt P08253) data: pIC50 of Cc1c(C(=O)Nc2ccc(-c3ccc(S(=O)(=O)N[C@H](C(=O)O)C(C)O)cc3)cc2)oc2cccc(NS(C)(=O)=O)c12 (stereo partly shown) , then report it.
Resp: 5.61

Req: Find the measured pIC50 of Cc1c(C(=O)Nc2ccc(-c3ccc(S(=O)(=O)N[C@H](C(=O)O)C(C)C)cc3)cc2)oc2cccc(NC(=O)C(C)C)c12 with MMP-2 (Homo sapiens, UniProt P08253) as test system.
Resp: 5.11

Req: For MMP-2 (Homo sapiens, UniProt P08253), give pIC50 of the listed compound: Cc1c(C(=O)Nc2ccc(-c3ccc(S(=O)(=O)N[C@H](C(=O)O)C(C)C)cc3)cc2)oc2cccc(N3CCCS3(=O)=O)c12
Resp: 5.32

Req: Fill in: pIC50 on MMP-2 (Homo sapiens, UniProt P08253), entry Cc1cccc2oc(C(=O)Nc3ccc(-c4ccc(S(=O)(=O)N[C@H](C(=O)O)C(C)C)cc4)cc3)nc12
Resp: 7.23

Req: // fetch pIC50 for COC/C=C\c1cccc2oc(C(=O)Nc3ccc(-c4ccc(S(=O)(=O)N[C@H](C(=O)O)C(C)C)cc4)cc3)c(C)c12 ; system: MMP-2 (Homo sapiens, UniProt P08253)
Resp: 5.20

Req: Find pIC50 for Cc1c(C(=O)Nc2ccc(-c3ccc(S(=O)(=O)N[C@H](C(=O)O)C(C)C)cc3)cc2)oc2cccc(NC(=O)C(F)(F)F)c12 on MMP-2 (Homo sapiens, UniProt P08253) and write it down.
Resp: 5.24

Req: State recorded pIC50 with MMP-2 (Homo sapiens, UniProt P08253), entry Cc1c(C(=O)Nc2ccc(-c3ccc(S(=O)(=O)N[C@H](C(=O)O)C(C)C)cc3)cc2)oc2cccc(NC(=O)C3CC3)c12 , no comment.
Resp: 5.37

Req: Look up and report measured pIC50 (MMP-2 (Homo sapiens, UniProt P08253)) for the following compound: Cc1ccc2oc(C(=O)Nc3ccc(-c4ccc(S(=O)(=O)N[C@H](C(=O)O)C(C)C)cc4)cc3)nc2c1
Resp: 6.94

Req: # return pIC50 of Cc1c(C(=O)Nc2ccc(-c3ccc(S(=O)(=O)N[C@H](C(=O)O)C(C)C)cc3)cc2)oc2cccc(NS(=O)(=O)C(C)C)c12 (system: MMP-2 (Homo sapiens, UniProt P08253))
Resp: 5.63

Req: Return reported pIC50 for target or system MMP-2 (Homo sapiens, UniProt P08253), item Cc1c(C(=O)Oc2ccc(-c3ccc(S(=O)(=O)N[C@@H](C(=O)O)C(C)C)cc3)cc2)oc2ccccc12 .
Resp: 7.77

====

# EXPERIMENTAL_SYSTEM: MMP-13 (Homo sapiens)
# Construct: made in house
# MEASUREMENT_DESCRIPTION: In-vitro fluorescence assay of MMP-13 activity
# Assay type: biochemical
# PARTICULARS: recombinant human catalytic domain of MMP-13; read-out: MMP-13 IC50
pIC50: −log10 of the molar value.
Label Y when pIC50 is at or above 8; anything below gets N.

Req: Textbook exercise: given the entry Cc1c(C(=O)Nc2ccc(-c3ccc(S(=O)(=O)N[C@H](C(=O)O)C(C)C)cc3)cc2)oc2cccc(CCCC(C)C)c12 , state whether its pIC50 is greater than or equal to 8.
Resp: N

Req: Threshold query (pIC50 >= 8) on CC(C)[C@H](NS(=O)(=O)c1ccc(-c2ccc(NC(=O)c3cc4cc(Cl)ccc4o3)cc2)cc1)C(=O)O
Resp: Y

Req: Check the entry CC(C)[C@H](NS(=O)(=O)c1ccc(-c2ccc(NC(=O)c3oc4ccccc4c3-c3ccccc3)cc2)cc1)C(=O)O : does pIC50 equal or exceed 8?
Resp: N

Req: Determine whether measured pIC50 meets or exceeds 8 for CCc1ccc2oc(C(=O)Nc3ccc(-c4ccc(S(=O)(=O)N[C@H](C(=O)O)C(C)C)cc4)cc3)c(C)c2c1OCc1ccccc1
Resp: N

Req: Decide: pIC50 of Cc1c(C(=O)Nc2ccc(-c3ccc(S(=O)(=O)N[C@H](C(=O)O)C(C)C)cc3)cc2)oc2cccc(N3CCCC3)c12 >= 8?
Resp: N

Req: Please tell me: is the compound CC(C)[C@@H](NS(=O)(=O)c1ccc(-c2ccc(NC(=O)c3cccs3)cc2)cc1)C(=O)O at or over 8 in terms of pIC50?
Resp: N

Req: Is it the case that COc1c(Cl)ccc2oc(C(=O)Nc3ccc(-c4ccc(S(=O)(=O)N[C@H](C(=O)O)C(C)C)cc4)cc3)c(C)c12 has pIC50 reaching or exceeding 8?
Resp: Y
